- RUN DESCRIPTION: activity coefficient (dimensionless); of the first substance listed, at infinite dilution; xn = mol fraction of the nth substance listed
- ASSAY CONTEXT: 343.15 K; 101.33 kPa; Liquid; Chromatography; x1 = 0
Recorded activity coefficient for the following compounds
ASSAY READOUT: activity coefficient

INSERT INTO results (compound, recorded_result) VALUES
  ('Cc1ccc(C)cc1 [1,4-dimethylbenzene] + CCCCCCn1cc[n+](C)c1C.F[B-](F)(F)F', 3.51),
  ('C1CCCCC1 [cyclohexane] + CCCCCCn1cc[n+](C)c1C.F[B-](F)(F)F', 19.1),
  ('CCCCCCCCC [nonane] + CCCCCCn1cc[n+](C)c1C.F[B-](F)(F)F', 72.6),
  ('CCc1ccccc1 [ethylbenzene] + CCCCCCn1cc[n+](C)c1C.F[B-](F)(F)F', 3.93),
  ('ClC(Cl)(Cl)Cl [tetrachloromethane] + CCCCCCn1cc[n+](C)c1C.F[B-](F)(F)F', 3.72),
  ('c1ccccc1 [benzene] + CCCCCCn1cc[n+](C)c1C.F[B-](F)(F)F', 1.58),
  ('CC#N [acetonitrile] + CCCCCCn1cc[n+](C)c1C.F[B-](F)(F)F', 0.57),
  ('CO [methanol] + CCCCCCn1cc[n+](C)c1C.F[B-](F)(F)F', 0.82),
  ('ClC(Cl)Cl [trichloromethane] + CCCCCCn1cc[n+](C)c1C.F[B-](F)(F)F', 0.82),
  ('CCOC(C)=O [ethyl acetate] + CCCCCCn1cc[n+](C)c1C.F[B-](F)(F)F', 2.21),
  ('ClCCl [dichloromethane] + CCCCCCn1cc[n+](C)c1C.F[B-](F)(F)F', 0.87),
  ('CC(C)CO [2-methyl-1-propanol] + CCCCCCn1cc[n+](C)c1C.F[B-](F)(F)F', 1.9),
  ('CCCCCCC [heptane] + CCCCCCn1cc[n+](C)c1C.F[B-](F)(F)F', 40.2),
  ('CCCCC [pentane] + CCCCCCn1cc[n+](C)c1C.F[B-](F)(F)F', 20.6),
  ('CCCCCCCC [octane] + CCCCCCn1cc[n+](C)c1C.F[B-](F)(F)F', 61.2),
  ('Cc1cccc(C)c1 [1,3-dimethylbenzene] + CCCCCCn1cc[n+](C)c1C.F[B-](F)(F)F', 3.67),
  ('CCO [ethanol] + CCCCCCn1cc[n+](C)c1C.F[B-](F)(F)F', 1.16),
  ('CC(C)O [propan-2-ol] + CCCCCCn1cc[n+](C)c1C.F[B-](F)(F)F', 1.46),
  ('C1CCOC1 [tetrahydrofuran] + CCCCCCn1cc[n+](C)c1C.F[B-](F)(F)F', 1.65),
  ('Cc1ccccc1C [1,2-dimethylbenzene] + CCCCCCn1cc[n+](C)c1C.F[B-](F)(F)F', 2.97),
  ('CC(C)CC(C)(C)C [2,2,4-trimethylpentane] + CCCCCCn1cc[n+](C)c1C.F[B-](F)(F)F', 57.5),
  ('Cc1ccccc1 [toluene] + CCCCCCn1cc[n+](C)c1C.F[B-](F)(F)F', 2.35),
  ('CC1CCCCC1 [methylcyclohexane] + CCCCCCn1cc[n+](C)c1C.F[B-](F)(F)F', 24.5),
  ('CCC(C)O (stereo unspecified) [butan-2-ol] + CCCCCCn1cc[n+](C)c1C.F[B-](F)(F)F', 2.38),
  ('CCCCCCCCCC [decane] + CCCCCCn1cc[n+](C)c1C.F[B-](F)(F)F', 102),
  ('CCCO [propan-1-ol] + CCCCCCn1cc[n+](C)c1C.F[B-](F)(F)F', 1.43),
  ('C1=CCCCC1 [cyclohexene] + CCCCCCn1cc[n+](C)c1C.F[B-](F)(F)F', 9.36),
  ('CC(C)=O [acetone] + CCCCCCn1cc[n+](C)c1C.F[B-](F)(F)F', 0.93),
  ('CCCCCC [hexane] + CCCCCCn1cc[n+](C)c1C.F[B-](F)(F)F', 26.3),
  ('CCCCO [butan-1-ol] + CCCCCCn1cc[n+](C)c1C.F[B-](F)(F)F', 2.37),
  ('C1COCCO1 [1,4-dioxane] + CCCCCCn1cc[n+](C)c1C.F[B-](F)(F)F', 1.12);
